All values here come from ChEMBL document CHEMBL1139759.

Record form. Attribute: pIC50. Fill in for each entry.
# assayed target: Sodium- and chloride-dependent glycine transporter 1 (Homo sapiens, UniProt P48067)
# Sequence (P48067 whole entry): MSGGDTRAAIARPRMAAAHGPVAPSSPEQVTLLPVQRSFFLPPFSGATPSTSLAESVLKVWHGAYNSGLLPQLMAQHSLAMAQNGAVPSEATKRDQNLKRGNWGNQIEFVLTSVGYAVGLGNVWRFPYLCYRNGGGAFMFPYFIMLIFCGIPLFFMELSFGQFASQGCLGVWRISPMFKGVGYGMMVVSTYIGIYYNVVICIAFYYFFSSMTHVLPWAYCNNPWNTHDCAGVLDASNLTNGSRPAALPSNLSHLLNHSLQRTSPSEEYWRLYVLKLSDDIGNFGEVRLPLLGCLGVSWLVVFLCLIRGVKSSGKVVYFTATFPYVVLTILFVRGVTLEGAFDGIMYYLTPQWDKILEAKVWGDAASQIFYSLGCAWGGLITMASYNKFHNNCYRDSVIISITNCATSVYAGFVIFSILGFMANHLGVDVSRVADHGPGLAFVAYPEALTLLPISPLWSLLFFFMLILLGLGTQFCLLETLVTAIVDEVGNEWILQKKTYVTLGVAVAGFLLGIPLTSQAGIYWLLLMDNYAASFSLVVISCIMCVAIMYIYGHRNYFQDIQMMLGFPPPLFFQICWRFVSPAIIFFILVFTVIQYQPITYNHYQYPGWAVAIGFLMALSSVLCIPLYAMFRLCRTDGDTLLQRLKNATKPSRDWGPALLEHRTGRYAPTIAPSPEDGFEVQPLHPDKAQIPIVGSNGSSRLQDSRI
# protocol description: Inhibition of [14C]glycine reuptake at human GlyT1 expressed in BE(2)-C cells
Answers are plain numbers, as −log10 of the molar value.

Reference set, count: 3
input_smiles=CN(CCOc1ccc(-c2ccccc2)cc1C(=O)c1ccccc1)CC(=O)O assayed_target="Sodium- and chloride-dependent glycine transporter 1 (Homo sapiens, UniProt P48067)" assay_value=7.19
input_smiles=CN(CCOc1ccc(-c2ccccc2)cc1Cc1ccccc1)CC(=O)O assayed_target="Sodium- and chloride-dependent glycine transporter 1 (Homo sapiens, UniProt P48067)" assay_value=7.07
input_smiles=CN(CCOc1ccc(-c2ccccc2)cc1-c1ccccc1F)CC(=O)O assayed_target="Sodium- and chloride-dependent glycine transporter 1 (Homo sapiens, UniProt P48067)" assay_value=6.97

Asked: Quick check: pIC50 on Sodium- and chloride-dependent glycine transporter 1 (Homo sapiens, UniProt P48067), item `COc1cccc(-c2ccc(OCCN(C)CC(=O)O)c(C(=O)c3cccs3)c2)c1` ?
Given back: 6.98

* * *

# assayed target: Sodium- and chloride-dependent glycine transporter 1 (Homo sapiens, UniProt P48067)
# protocol description: Inhibition of [14C]glycine reuptake at human GlyT1 expressed in BE(2)-C cells
Record form. Attribute: log10(IC50). Fill in for each entry.
Short version: log10 scale, IC50, µM.

# annotated cases, reported log10(IC50) shown
input_smiles=CN(CCOc1ccc(-c2ccc3c(c2)OCO3)cc1-c1cccs1)CC(=O)O readout=log10(IC50) assay_value=-1.47
input_smiles=CN(CCOc1ccc(-c2ccccc2)cc1-c1cccc2ccccc12)CC(=O)O readout=log10(IC50) assay_value=-0.30
input_smiles=Cc1ccc(-c2ccc(OCCN(C)CC(=O)O)c(C(=O)c3cccs3)c2)cc1C readout=log10(IC50) assay_value=-1.12
input_smiles=CN(CCOc1ccc(-c2ccccc2)cc1C(=O)C1CCCCC1)CC(=O)O readout=log10(IC50) assay_value=-1.15
input_smiles=CN(CCOc1ccc(-c2ccc3c(c2)CCO3)cc1-c1ccccc1Cl)CC(=O)O readout=log10(IC50) assay_value=-1.89

Count: 6. Required value per item: log10(IC50).
1. CN(CCOc1ccc(-c2cccc(Cl)c2)cc1C(=O)c1cccs1)CC(=O)O
2. COc1ccc(-c2ccc(OCCN(C)CC(=O)O)c(C(=O)c3cccs3)c2)cc1
3. CN(CCOc1ccc(-c2ccccc2)cc1-c1cccc(Cl)c1)CC(=O)O
4. COc1ccc(-c2ccc(OCCN(C)CC(=O)O)c(-c3ccccc3Cl)c2)cc1C
5. CN(CCOc1ccc(-c2ccccc2)cc1CC1CCCCC1)CC(=O)O
6. CN(CCOc1ccc(-c2ccc3c(c2)CCO3)cc1-c1cccs1)CC(=O)O

Given back:
[-1.59, -1.57, -0.17, -1.55, -0.54, -1.77]

Please report log10(IC50) for every entry that follows.
1. COc1ccc(-c2ccc(OCCN(C)CC(=O)O)c(C(=O)c3cccs3)c2)cc1OC
2. CN(CCOc1ccc(-c2ccccc2)cc1-c1ccsc1)CC(=O)O

Given back:
1: -0.08; 2: -0.86
